target: p53-Cluc fusion protein (UniProt P04637+P08659, D436G/I423L/L530R); test: p53-Cluc luciferase fragment complementation DNA-binding assay; settings: read-out: IC50, inhibition of p53 sequence-specific DNA binding in vitro
measure: pIC50
Numbers only, as −log10 of the molar value.

Q: Using the record for `[O-][n+]1c(CN2CCCCC2)nc2cccc3c2c1-c1ccccc1-3` , report its pIC50.
A: 6.74

All figures here come from paper PMC7398576.
